System: Human immunodeficiency virus 1
assay_remarks: Effective concentration required to inhibit HIV-1/138K induced cytopathicity in human CEM cell line
Format: functional, organism-based
experimental_context: Human immunodeficiency virus 1, CCRF-CEM
pEC50: −log10 of the molar value.
readout_label: pEC50

{"smiles_entry": "COC(=O)/C=C/Cn1c(=O)c(C)cn([C@@H]2O[C@H](CO[Si](C)(C)C(C)(C)C)[C@@]3(OS(=O)(=O)C=C3N)[C@H]2O[Si](C)(C)C(C)(C)C)c1=O", "pEC50": 5.26}
{"smiles_entry": "CCOC(=O)CCCCCn1c(=O)c(C)cn([C@@H]2O[C@H](CO[Si](C)(C)C(C)(C)C)[C@@]3(OS(=O)(=O)C=C3N)[C@H]2O[Si](C)(C)C(C)(C)C)c1=O", "pEC50": "< 5.00"}
{"smiles_entry": "Cc1cn([C@@H]2O[C@H](CO[Si](C)(C)C(C)(C)C)[C@@]3(OS(=O)(=O)C=C3N)[C@H]2O[Si](C)(C)C(C)(C)C)c(=O)n(CCCNC(=O)OCc2ccccc2)c1=O", "pEC50": "< 4.30"}

Lab note: next compound to report on.
Qu. Consider the compound Cc1cn([C@@H]2O[C@H](CO[Si](C)(C)C(C)(C)C)[C@@]3(OS(=O)(=O)C=C3N)[C@H]2O[Si](C)(C)C(C)(C)C)c(=O)n(CCCN)c1=O and give its measured pEC50.
Ans. < 5.00

###

Test system: Human immunodeficiency virus 1
assay_remarks: Effective concentration required to inhibit HIV-1 induced cytopathicity in human MT-4 cell line
Assay type: functional, organism-based
experimental_context: Human immunodeficiency virus 1, MT4
Measured pEC50 values are reported for all entries that follow.
Answer as the number alone; pEC50 is minus log10 of concentration in mol/L.

{"smiles_entry": "Cc1cn([C@@H]2O[C@H](CO[Si](C)(C)C(C)(C)C)[C@@]3(OS(=O)(=O)C=C3N)[C@H]2O[Si](C)(C)C(C)(C)C)c(=O)n(CC(=O)OCc2ccccc2)c1=O", "readout_label": "pEC50", "val": 6.27}
{"smiles_entry": "CCCCOC(=O)CN(CCCn1c(=O)c(C)cn([C@@H]2O[C@H](CO[Si](C)(C)C(C)(C)C)[C@@]3(OS(=O)(=O)C=C3N)[C@H]2O[Si](C)(C)C(C)(C)C)c1=O)CC(=O)OCCCC", "readout_label": "pEC50", "val": 4.89}
{"smiles_entry": "Cc1cn([C@@H]2O[C@H](CO[Si](C)(C)C(C)(C)C)[C@@]3(OS(=O)(=O)C=C3N)[C@H]2O[Si](C)(C)C(C)(C)C)c(=O)n(CCO)c1=O", "readout_label": "pEC50", "val": 7.22}

Lab note: next compound to report on.
Qu. Consider the compound Cc1cn([C@@H]2O[C@H](CO[Si](C)(C)C(C)(C)C)[C@@]3(OS(=O)(=O)C=C3N)[C@H]2O[Si](C)(C)C(C)(C)C)c(=O)n(Cc2ccccc2)c1=O and give its measured pEC50.
Ans. 6.33

###

Tested on: Human immunodeficiency virus 2
assay_remarks: Effective concentration required to inhibit HIV-2 induced cytopathicity in human MT-4 cell line
Type: functional, organism-based
experimental_context: Human immunodeficiency virus 2, MT4
pEC50: −log10 of the molar value.
readout_label: pEC50

Qu. Consider the compound CCOC(=O)CCCCCn1c(=O)c(C)cn([C@@H]2O[C@H](CO[Si](C)(C)C(C)(C)C)[C@@]3(OS(=O)(=O)C=C3N)[C@H]2O[Si](C)(C)C(C)(C)C)c1=O and give its measured pEC50.
Ans. < 4.30

Qu. Consider the compound Cc1cn([C@@H]2O[C@H](CO[Si](C)(C)C(C)(C)C)[C@@]3(OS(=O)(=O)C=C3N)[C@H]2O[Si](C)(C)C(C)(C)C)c(=O)n(CC(=O)N(C)C)c1=O and give its measured pEC50.
Ans. < 3.60

Qu. Consider the compound Cc1cn([C@@H]2O[C@H](CO[Si](C)(C)C(C)(C)C)[C@@]3(OS(=O)(=O)C=C3N)[C@H]2O[Si](C)(C)C(C)(C)C)c(=O)n(CCc2ccccc2)c1=O and give its measured pEC50.
Ans. < 5.70

Qu. Consider the compound Cc1cn([C@@H]2O[C@H](CO[Si](C)(C)C(C)(C)C)[C@@]3(OS(=O)(=O)C=C3N)[C@H]2O[Si](C)(C)C(C)(C)C)c(=O)n(CCBr)c1=O and give its measured pEC50.
Ans. < 4.30

Qu. Consider the compound Cc1cn([C@@H]2O[C@H](CO[Si](C)(C)C(C)(C)C)[C@@]3(OS(=O)(=O)C=C3N)[C@H]2O[Si](C)(C)C(C)(C)C)c(=O)n(CCCN)c1=O and give its measured pEC50.
Ans. < 5.00

Qu. Consider the compound COCCn1c(=O)c(C)cn([C@@H]2O[C@H](CO[Si](C)(C)C(C)(C)C)[C@@]3(OS(=O)(=O)C=C3N)[C@H]2O[Si](C)(C)C(C)(C)C)c1=O and give its measured pEC50.
Ans. < 5.00
